System: MALME-3M melanoma
Method Description: NCI tumour cell line growth inhibition, 48 h
Measure: TGI

• CNC(=S)NC1CCCCC1NC(=S)NC (stereo not given) = > 100 µM
• Clc1c(Cl)c(Cl)c2nn(C3CCCO3)nc2c1Cl (stereo not given) = > 100 µM
• O=C1NC(=Nc2ccccc2)S/C1=C\c1ccc2ncccc2c1 = > 25 µM
• CC(=O)NC1C(OCc2ccccc2)OC(CO)C(O)C1OC(C)C(=O)NC(C)C(=O)NC(CCC(=O)NCCCNc1c2ccccc2nc2cccc([N+](=O)[O-])c12)C(N)=O (stereo not given) = 7.61 µM

Moving on to another compound below.
Give the reported value of TGI for this record: CCOC(=O)Oc1c(OC)cc(C(=O)NC2CCc3cc(OC)c(OC)c(OC)c3-c3ccc(SC)c(=O)cc32)cc1OC (stereo not given)
> 70 µM
